Molecular target: Ataxin-2 (Homo sapiens)
Assay: qHTS for Inhibitors of ATXN expression.
Format: functional
Among all 400,000 compounds or so, about 2,100 (0.53%) were called active. Not shown: some 14% with an inconclusive outcome. How the calls were made is not given here. Shown is part of a subset that was picked to be rich in actives.
Would you mind answering with one of these outcomes? 1 = active, 0 = inactive

{"columns": ["compound", "measurement_target", "answer_label"],
 "data": [
  ["COc1ccc(C2C=C(c3ccc(Cl)cc3)Nc3nc(NC(=O)CCC(=O)O)nn32)cc1 (configuration not stated)", "Ataxin-2 (Homo sapiens)", 0]
]}

Which outcome did this test record for the compound COC(=O)C1=C(C)NC(=O)NC1c1ccc(N2CCC(c3ccccc3)=N2)cc1 (configuration not stated) ?
0

Which outcome did this test record for the compound `CN(C)c1ccc(/C=C2\Oc3ccc(C#Cc4cccc(N)c4)cc3C2=O)cc1` ?
0

Which outcome did this test record for the compound `Cc1nnc(SCc2cccc3ccccc23)s1` ?
0

Which outcome did this test record for the compound `Cc1cc(NC(=O)Nc2ccc(Cl)cc2)n(-c2ccccc2)n1` ?
0

Which outcome did this test record for the compound `C#Cc1cccc(Nc2nc(NC(C)C)nc3ccsc23)c1` ?
1

Which outcome did this test record for the compound `Cc1cccn2c(=O)c3cc(C(=O)NC4CCCC4)c(=N)n(C4CCCC4)c3nc12` ?
0

Which outcome did this test record for the compound `Cc1ccc(Cl)cc1N1CCN(C(=O)Cc2csc(Nc3nc(S)nc4ccccc34)n2)CC1` ?
0

Which outcome did this test record for the compound `O=c1c(Cl)cc(Cl)nn1-c1ccccc1` ?
1

----------
Biological target: Ataxin-2 (Homo sapiens) (UniProt Q99700)
Sequence (Q99700 whole entry): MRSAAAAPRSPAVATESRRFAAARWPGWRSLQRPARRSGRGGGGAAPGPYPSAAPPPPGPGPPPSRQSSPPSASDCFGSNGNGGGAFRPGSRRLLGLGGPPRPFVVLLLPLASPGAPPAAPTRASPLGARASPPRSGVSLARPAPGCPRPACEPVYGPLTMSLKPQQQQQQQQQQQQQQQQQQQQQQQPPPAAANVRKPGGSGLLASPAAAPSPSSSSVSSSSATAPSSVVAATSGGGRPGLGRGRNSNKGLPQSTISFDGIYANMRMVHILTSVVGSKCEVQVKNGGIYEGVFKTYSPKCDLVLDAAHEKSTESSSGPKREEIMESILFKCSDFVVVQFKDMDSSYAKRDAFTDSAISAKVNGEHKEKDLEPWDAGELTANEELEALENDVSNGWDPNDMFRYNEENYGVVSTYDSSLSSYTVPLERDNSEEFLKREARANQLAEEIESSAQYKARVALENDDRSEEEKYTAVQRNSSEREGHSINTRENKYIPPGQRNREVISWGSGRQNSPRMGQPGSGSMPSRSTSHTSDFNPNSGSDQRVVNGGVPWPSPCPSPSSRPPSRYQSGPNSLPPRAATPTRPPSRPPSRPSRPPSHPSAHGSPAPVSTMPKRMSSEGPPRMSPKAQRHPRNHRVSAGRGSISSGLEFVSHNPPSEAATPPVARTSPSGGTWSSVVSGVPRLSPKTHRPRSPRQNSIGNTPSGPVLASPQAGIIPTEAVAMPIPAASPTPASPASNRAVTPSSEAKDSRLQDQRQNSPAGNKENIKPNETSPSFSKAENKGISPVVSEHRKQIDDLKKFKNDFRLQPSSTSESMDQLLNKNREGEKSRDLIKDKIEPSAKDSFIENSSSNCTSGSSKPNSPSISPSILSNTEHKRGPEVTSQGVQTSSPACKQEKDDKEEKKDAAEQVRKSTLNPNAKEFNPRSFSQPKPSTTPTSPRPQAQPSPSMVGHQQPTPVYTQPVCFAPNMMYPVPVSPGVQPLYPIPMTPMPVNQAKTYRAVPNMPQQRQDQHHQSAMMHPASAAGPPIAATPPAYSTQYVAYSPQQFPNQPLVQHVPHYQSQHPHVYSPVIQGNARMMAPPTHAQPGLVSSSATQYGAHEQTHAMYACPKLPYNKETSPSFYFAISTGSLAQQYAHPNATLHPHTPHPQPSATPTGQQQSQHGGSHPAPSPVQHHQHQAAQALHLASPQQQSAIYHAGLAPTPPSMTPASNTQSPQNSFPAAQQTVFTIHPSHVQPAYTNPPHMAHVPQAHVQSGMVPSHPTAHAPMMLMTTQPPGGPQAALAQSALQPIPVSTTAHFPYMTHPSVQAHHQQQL
Experiment: qHTS for Inhibitors of ATXN expression.
Format: functional
In all, about 400,000 compounds went through this assay and about 2,100 (0.53%) were called active. Not shown: some 14% with an inconclusive outcome. The entries come from a sample that favours actives as a whole.
value_type: Potency

Worked set:
{"columns": ["molecule", "measurement_target", "Potency"],
 "data": [
  ["COc1ccc(C(=O)Nc2ccc(S(=O)(=O)Nc3nccc(C)n3)cc2)cc1[N+](=O)[O-]", "Ataxin-2 (Homo sapiens) (UniProt Q99700)", "inactive"],
  ["CN(CC(=O)Nc1ccccc1Sc1ccccc1)C1CCCCC1", "Ataxin-2 (Homo sapiens) (UniProt Q99700)", "inactive"],
  ["Cc1cc2c(cc1C)CSC(c1c(O)ccc3ccccc13)SC2", "Ataxin-2 (Homo sapiens) (UniProt Q99700)", "35.5 µM (active)"],
  ["COC(=O)c1ccc(COc2ccc(C(C)(C)C)cc2)o1", "Ataxin-2 (Homo sapiens) (UniProt Q99700)", "inactive"],
  ["COc1ccc(CC(=O)NC2CCCc3ccccc32)cc1 (stereo unspecified)", "Ataxin-2 (Homo sapiens) (UniProt Q99700)", "inactive"],
  ["COc1cccc2sc3cc(NCC[C@@H]4CCCN4C)ccc3c(=O)c12", "Ataxin-2 (Homo sapiens) (UniProt Q99700)", "inactive"],
  ["O=c1cc(CSc2nc(O)c3ccccc3n2)c2ccc(O)cc2o1", "Ataxin-2 (Homo sapiens) (UniProt Q99700)", "inactive"],
  ["C=CCC(Nc1ccccc1)C12C=CC(O1)C(C(=O)OC)=C2C(=O)OC (stereo unspecified)", "Ataxin-2 (Homo sapiens) (UniProt Q99700)", "39.8 µM (active)"]
]}

For the 2 molecules below, give their Potency values.
1. COc1ccc(N2CCN(c3cc(C)c4cccc(C)c4n3)CC2)cc1
2. COc1ccc(-n2c(-c3cccc(OC)c3)nc(=S)c3c2CCCC3)cc1

1. inactive
2. 25.1 µM (active)

# input molecule: `Cc1ccc(Cl)c(NC(=O)CSc2nnc(O)n2C2CC2)c1Cl` ; wanted: its Potency
inactive

----------
Target: Ataxin-2 (Homo sapiens) (UniProt Q99700)
Experiment: qHTS for Inhibitors of ATXN expression.
Format: functional
In all, about 400,000 compounds went through this assay and about 2,100 (0.53%) were called active. About 14% were inconclusive and are not listed. The rule behind the calls is not given here. The sample as a whole holds a higher share of actives than the screen did.
Would you mind answering with one of these outcomes? Y (active), N (inactive)

Observe how each entry below is paired with its result.
{"columns": ["compound", "answer_label"],
 "data": [
  ["Cc1ccc2nc(Cl)c(C#N)cc2c1", "N"],
  ["CCN1/C(=C/c2ccc3cc(C)ccc3[n+]2CC)Sc2cc(C)ccc21", "Y"],
  ["O=C1C(=O)c2c(C(=O)c3ccccc3)coc2-c2ccccc21", "Y"],
  ["O=C(NCc1ccc(F)cc1)c1cccc2c1C(=O)c1ccc(N3CCC(Cc4ccccc4)CC3)cc1S2(=O)=O", "N"],
  ["Cc1ccc2nc(O)c(C3C(C#N)=C(N)Oc4c3ccc3cccnc43)cc2c1 (stereo unspecified)", "Y"]
]}

Which outcome did this test record for the compound `CCn1c(=N)c(C(=O)NC2CCCCC2)cc2c(=O)n3cccc(C)c3nc21` ?
N

Which outcome did this test record for the compound C#CCOc1ccc(C2C(C#N)=C(N)Oc3cc(O)ccc32)cc1 (stereo unspecified) ?
N

Which outcome did this test record for the compound `CCCCN=c1nc(S)n(-c2ccccc2)c(C)c1C(C)=O` ?
Y

Which outcome did this test record for the compound COc1ccc(OC)c(C2CC(=O)N3CN(c4ccccc4F)CSC3=C2C#N)c1 (stereo unspecified) ?
N

Which outcome did this test record for the compound `CCCCn1c(=O)nc2n(-c3ccccc3)c3ccccc3cc-2c1=O` ?
N

Which outcome did this test record for the compound O=C(NCCC1=CCCCC1)C1CCC(CNc2nc(S)nc3ccccc23)CC1 (stereo unspecified) ?
Y

----------
Target: Ataxin-2 (Homo sapiens) (UniProt Q99700)
Experiment: qHTS for Inhibitors of ATXN expression.
Assay type: functional
Screen size: about 400,000 compounds; about 2,100 (0.53%) were called active. Not shown: some 14% with an inconclusive outcome. No rule for the calls is given here. For the sample, actives were picked, then their nearest neighbours and some compounds at random.
Would you mind answering with one of these outcomes? True (active), False (inactive)

Observe how each entry below is paired with its result.
{"columns": ["compound", "answer_label"],
 "data": [
  ["O=C(Nc1cc(Cl)ccc1N1CCOCC1)c1cc2ccccc2o1", "False"],
  ["COc1cc(NC(=O)c2cc(Cl)ccc2Cl)ccc1NC(=O)c1cc2ccccc2o1", "True"],
  ["O=C1/C(=C/NCc2ccccn2)c2ccccc2C(=O)N1c1ccccc1", "False"],
  ["Oc1ccc(-c2onc3ccc(Cl)cc23)cc1", "False"],
  ["Cc1ccc(-n2c(S)nnc2Cn2c(C)nc3ccccc32)cc1", "False"],
  ["CC(C)n1c(=N)c(C(=O)NCCc2ccccc2)cc2c(=O)n3ccccc3nc21", "False"]
]}

Which outcome did this test record for the compound Cc1oc(-c2ccccc2F)nc1C[S+]([O-])CC(=O)NCc1ccc(F)cc1 (stereo unspecified) ?
False

Which outcome did this test record for the compound `O=C(Nc1ccc(N2CCN(C(=O)c3ccco3)CC2)c(Cl)c1)c1cc2ccccc2o1` ?
True

Which outcome did this test record for the compound `Oc1ccc(N=Nc2n[nH]c(-c3ccc(Cl)cc3)n2)cc1` ?
True

Which outcome did this test record for the compound `Fc1ccc(-c2ncc3ccccn23)cc1` ?
False

Which outcome did this test record for the compound `Cc1ccc2c(Cl)cc(Cl)c(OCC(=O)OCC(=O)Nc3ccc(C#N)cc3)c2n1` ?
False

----------
Target: Ataxin-2 (Homo sapiens)
Assay: qHTS for Inhibitors of ATXN expression.
Format: functional
The whole screen tested about 400,000 compounds, of which about 2,100 (0.53%) were called active. Inconclusive results (about 14%) are left out. How the calls were made is not given here. This is one part of a sample in which actives are shown more often than they occur.
Would you mind answering with one of these outcomes? Y = active, N = inactive

Observe how each entry below is paired with its result.
{"columns": ["compound", "answer_label"],
 "data": [
  ["COc1ccccc1-c1cc(C(F)(F)F)nc(S(=O)(=O)CCCC(=O)Nc2cc(C)on2)n1", "Y"],
  ["COc1ccc(-c2csc(NC(=O)CCNC(=O)c3ccco3)n2)cc1OC", "N"]
]}

Which outcome did this test record for the compound Cc1cc(-c2ccnc(-n3ncc(C(=O)NCC4COCCO4)c3C3CC3)n2)c(C)s1 (centres undefined) ?
N

Which outcome did this test record for the compound `COc1ccc(-c2cc(C(F)(F)F)nc(S(=O)(=O)CCCC(=O)Nc3cccc(O)c3)n2)cc1OC` ?
Y

Which outcome did this test record for the compound CC1CCCCN1C(=O)COC(=O)c1cc(-c2cccs2)nn1-c1ccccc1 (centres undefined) ?
N

----------
Target: Ataxin-2 (Homo sapiens) (UniProt Q99700)
Experiment: qHTS for Inhibitors of ATXN expression.
Format: functional
About 2,100 (0.53%) of roughly 400,000 compounds were called active. Inconclusive results (about 14%) are left out. The rule behind the calls is not given here. For the sample, actives were picked, then their nearest neighbours and some compounds at random.
Would you mind answering with one of these outcomes? true (1) = active, false (0) = inactive

{"columns": ["molecule", "answer_label"],
 "data": [
  ["COc1ccc(N2C(=O)CC(Sc3nnc(-c4ccccc4F)n3C)C2=O)cc1 (stereo unspecified)", "true (1)"],
  ["C=CCSc1nnc(C)c(/C=C/Nc2ccc(Cl)cc2)n1", "false (0)"],
  ["CCCn1c(=O)c(C(=O)Nc2ncccc2O)c(O)c2ccccc21", "false (0)"],
  ["COc1ccc(C2CC(c3ccccc3F)=NN2c2ccc(S(N)(=O)=O)cc2)cc1 (stereo unspecified)", "false (0)"],
  ["COc1cccc(CNC(=O)c2cc(S(=O)(=O)N3CCCC3)cn2C)c1", "false (0)"],
  ["Cc1cc(/C=c2\\sc3nc4ccccc4n3c2=O)c(C)n1-c1ccc(C(=O)O)cc1", "false (0)"],
  ["Cc1cc(NCCCN(C)C)n2c(nc3ccccc32)c1C#N", "false (0)"],
  ["CCNc1nc(-c2sc(NC(=O)C(C)(C)C)nc2C)c(-n2cc(-c3ccccc3)nn2)s1", "true (1)"],
  ["COc1ccc(CNc2nc(C)cc(C)c2C#N)cc1", "false (0)"],
  ["O=C1N/C(=C/c2cccn2-c2ccccc2)C(=O)N1Cc1ccc(F)cc1", "false (0)"]
]}

Below: the item to evaluate.
Which outcome did this test record for the molecule `CCn1nc(C(=O)Nc2nc(-c3ccccn3)cs2)c2ccccc2c1=O` ?
true (1)

All values here come from ChEMBL document CHEMBL1201862.
